// provenance: patent US20260365734

molecular target: human PD-L1 (cell surface) (human, UniProt Q9NZQ7); assay: FACS, T24 cells
Sequence (Q9NZQ7 19-238): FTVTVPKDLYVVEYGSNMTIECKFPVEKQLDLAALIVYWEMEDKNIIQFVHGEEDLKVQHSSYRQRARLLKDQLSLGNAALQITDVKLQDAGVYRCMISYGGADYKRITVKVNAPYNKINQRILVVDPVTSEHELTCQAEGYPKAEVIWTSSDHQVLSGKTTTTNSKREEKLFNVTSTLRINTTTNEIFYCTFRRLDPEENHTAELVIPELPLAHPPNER
# EC50 annotations
Note: unit nM is implicit; provide only the numeric part.

[[record]]
binder = "5C12-hv7-NT (antibody, V domains shown) VH: QVQLVESGGGLVKPGGSLRLSCAASGFSASDVVMAWYRQAPGKQREFVSNIAARGSTDYADSVKGRFTISRDNAKNSLYLQMNSLRAEDTAVYYCNALVWTGSSYNNWGQGTQVTVSS"
reported_property = "EC50"
measured_value = 0.083


Tell me measured EC50 for 4E2-hv1-NT (antibody, V domains shown) VH: EVQLVESGGGLVKPGGSLRLSCAASGFSAGDVVMAWYRQAPGKQREFVANIAASSTTRYADSVKGRFTISRDNAKNSLYLQMNSLRAEDTAVYYCNALVWTGSSYNNWGQGTQVTVSS please.
0.048
